B1: LINE1-full (parent)
chain: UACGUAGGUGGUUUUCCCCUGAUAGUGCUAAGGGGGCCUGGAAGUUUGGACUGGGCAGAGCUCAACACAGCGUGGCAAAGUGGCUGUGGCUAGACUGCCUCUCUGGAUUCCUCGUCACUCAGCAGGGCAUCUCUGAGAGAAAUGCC

Variants of: B1
Experiment Description: self-cleavage, relative activity (ratio to wild type); higher = more cleavage; in vitro, sequencing; the parent is a self-cleaving ribozyme
Parameter threshold = 1. Response is 1 when self-cleavage meets or exceeds it, else -1.

{"columns": ["Mutation Key", "Cat"],
 "data": [
  ["U45C A140C", 1],
  ["A121U A136G", 1],
  ["U15C C145U", 1],
  ["G74A U102G", -1],
  ["U13G A79G", 1]
]}

Does the variant U52A A140G have recorded self-cleavage that is 1 or more? 1

Hi team, for U102C C120A , is the recorded self-cleavage at or above 1? 1

Check if self-cleavage >= 1 (inclusive). Item: G41U C145U -1

Is reported self-cleavage greater than or equal to 1 here: U26C U108A 1
